As shown below, each of these compounds has a reported MIC80 value.
Experiment: Antifungal activity against Candida utilis after 24 hrs by two fold serial dilution method
Assay type: functional
Settings: Cyberlindnera jadinii
property.measured: MIC80 (µg/mL)

• Nc1ncc(-c2cn(Cc3ccccc3Cl)c3c(F)cc(F)cc3c2=O)s1 = 64
• OC(Cn1cncn1)(Cn1cncn1)c1ccc(F)cc1F = 8
• CCCn1cc(-c2cnc(N)s2)c(=O)c2cc(F)cc(F)c21 = 64
• Nc1ncc(-c2cn(Cc3ccc(F)cc3)c3c(F)cc(F)cc3c2=O)s1 = 64
• Nc1ncc(-c2cn(Cc3ccccc3F)c3c(F)cc(F)cc3c2=O)s1 = 128
